tested on: NCI-H322M lung; test: NCI-60 one-dose screen, 48 h; conditions: 10 µM
This is part of a sample that, as a whole, favours compounds with a hit. Of some 83,000 tested, about 20% had one in any assay. Active and inactive are the calls of the source. How the source made its calls: active means growth percent below 10; inactive means the rest.
Respond only with the outcome that fits, drawn from active, inactive

A selection of reference data follows.
CCOc1cc(Br)c(C(C)NC(=O)c2cccc(OC)c2)cc1OCC (stereo unspecified): inactive
C=CCN1C(=O)/C(=C\c2ccc3c(c2)CCC3)SC1=S: inactive

Recorded call for `O=C(c1ccc(Cl)cc1)c1no[n+]([O-])c1C(=O)c1ccc(Cl)cc1` ? inactive

Recorded call for CCC(O)c1ccc(Br)cc1NC(=O)c1cccc(Cl)c1 (stereo unspecified) ? inactive

Recorded call for `C#CCn1c(-c2cccc(OCCCCl)c2)nc2c1c(=O)n(C)c(=O)n2C` ? inactive

Recorded call for `COc1ccc(-c2nnc(COc3ccc(NC(=O)Nc4ccccc4)cc3F)o2)cc1` ? inactive

Recorded call for `CCN(CC)CCOC(=O)c1ccc(N=Nc2ccc(O)c(OC)c2)cc1` ? inactive

Recorded call for `N#Cc1c2c([nH]c(=O)c1C(N)=O)CCCCC2` ? inactive

Recorded call for CN(C)c1ccc2cc(-c3cc4c(oc3=O)-c3ccccc3OC4O)c(=O)oc2c1 (stereo unspecified) ? inactive

Recorded call for COc1ccc2oc(=O)cc(C3c4ccc([nH]4)C(c4cc(=O)oc5ccc(OC)cc45)c4ccc([nH]4)C(c4cc(=O)oc5ccc(OC)cc45)c4ccc([nH]4)C(c4cc(=O)oc5ccc(OC)cc45)c4ccc3[nH]4)c2c1 (stereo unspecified) ? inactive

Recorded call for `Cc1ccc(C(=O)O)c(N)c1C` ? inactive

* * *

test system: HCT-116 colon; assay: NCI-60 one-dose screen, 48 h; conditions: 10 µM
This is part of a sample that, as a whole, favours compounds with a hit. Of some 83,000 tested, about 20% had one in any assay. Calls of active or inactive are those of the source. Rule for the calls: active = growth percent below 10; inactive = the rest.
Respond only with the outcome that fits, drawn from label 1 = active, label 0 = inactive

A selection of reference data follows.
COC1OC2COC(c3ccccc3)OC2C(=O)C1NC(=O)c1ccccc1 (stereo unspecified): label 0
Cc1cc2cc3c(=O)[nH]c(=O)cc-3n(CC(O)C(O)C(O)CO)c2cc1C (stereo unspecified): label 0
Fc1ccc2[nH]c3c(NCCCN4CCOCC4)ncnc3c2c1: label 0

Recorded call for `O=S(=O)(O)C1(O)CCCCC1` ? label 0

Recorded call for `COc1ccc(-c2n/c(=C\c3c(O)[nH]c4ccccc34)cc3c2=Nc2ccccc2-3)cc1` ? label 1

Recorded call for `COc1cccc(C(=O)NNc2nc(N3CCN(C4CCCCC4)CC3)nc(N3CCN(C(c4ccccc4)c4ccccc4)CC3)n2)c1` ? label 0

Recorded call for `CCCn1c(=O)c2c(nc(-c3cccc(OCCCCl)c3)n2C)n(CCC)c1=O` ? label 0

Recorded call for `O=S(=O)(NC1c2ccccc2Oc2ccccc21)c1ccccc1` ? label 0

Recorded call for `O=C(CCc1ccccc1)N1CCN(C(=O)CCc2ccccc2)CC1` ? label 0

Recorded call for CN1/C(=C\C(I)C(I)C2=[N+](C)c3ccccc3C2(C)C)C(C)(C)c2ccccc21 (stereo unspecified) ? label 1

Recorded call for `FC(F)(F)c1ccc(-c2cnc(Br)nc2NC2CCCCCC2)cc1` ? label 0

Recorded call for `COc1ccc(-c2csc(-c3cc(Cl)cc(Cl)c3Cl)n2)cc1` ? label 0

Recorded call for CCC(CCNc1cc(OC)cc2cccnc12)CN1C(=O)c2ccccc2C1=O (stereo unspecified) ? label 0

Recorded call for `c1ccc(C2CCCCC2)c(OCCCCCN2CCNCC2)c1` ? label 1

Recorded call for `S=c1c2ncccc2c(-c2ccccn2)nn1Cc1ccccn1` ? label 0

Recorded call for `FC(F)(F)c1ccc(-c2cnc(Cl)nc2NC2CCCCCC2)cc1` ? label 0

Recorded call for `CC1(C)Cc2c(cn(Cc3ccccc3)c2-c2ccccc2)-c2oncc21` ? label 0

Recorded call for `COc1cc(-c2n/c(=C\c3c(O)[nH]c4ccccc34)cc3c2=Nc2ccccc2-3)cc(OC)c1OC` ? label 1

Recorded call for `O=[N+]([O-])c1ccc(-c2nc(-c3ccccc3)c(-c3ccccc3)n2-c2ccccc2)cc1` ? label 0

Recorded call for `CNCCCNCCCN1C(=O)c2ccc3c4c(ccc(c24)C1=O)C(=O)N(CCCNCc1ccccc1OC)C3=O` ? label 1

Recorded call for `Cc1ccc(-c2cc(C(=O)Nc3ccc(S(=O)(=O)N4CCCCC4)cc3)[nH]n2)c(O)c1` ? label 0
